target: UniProt:P42338; experiment: Cellular p-Akt (S473) SureFire assay, Rat-1_PI3Kbeta cells (Assay I); type: cell-based; conditions: p-AKT (Ser473) in Rat-1 cells expressing myr-HA-hp110 beta, 1 h compound; read-out: Assay I PI3Kβ IC50
Sequence (P42338 whole entry): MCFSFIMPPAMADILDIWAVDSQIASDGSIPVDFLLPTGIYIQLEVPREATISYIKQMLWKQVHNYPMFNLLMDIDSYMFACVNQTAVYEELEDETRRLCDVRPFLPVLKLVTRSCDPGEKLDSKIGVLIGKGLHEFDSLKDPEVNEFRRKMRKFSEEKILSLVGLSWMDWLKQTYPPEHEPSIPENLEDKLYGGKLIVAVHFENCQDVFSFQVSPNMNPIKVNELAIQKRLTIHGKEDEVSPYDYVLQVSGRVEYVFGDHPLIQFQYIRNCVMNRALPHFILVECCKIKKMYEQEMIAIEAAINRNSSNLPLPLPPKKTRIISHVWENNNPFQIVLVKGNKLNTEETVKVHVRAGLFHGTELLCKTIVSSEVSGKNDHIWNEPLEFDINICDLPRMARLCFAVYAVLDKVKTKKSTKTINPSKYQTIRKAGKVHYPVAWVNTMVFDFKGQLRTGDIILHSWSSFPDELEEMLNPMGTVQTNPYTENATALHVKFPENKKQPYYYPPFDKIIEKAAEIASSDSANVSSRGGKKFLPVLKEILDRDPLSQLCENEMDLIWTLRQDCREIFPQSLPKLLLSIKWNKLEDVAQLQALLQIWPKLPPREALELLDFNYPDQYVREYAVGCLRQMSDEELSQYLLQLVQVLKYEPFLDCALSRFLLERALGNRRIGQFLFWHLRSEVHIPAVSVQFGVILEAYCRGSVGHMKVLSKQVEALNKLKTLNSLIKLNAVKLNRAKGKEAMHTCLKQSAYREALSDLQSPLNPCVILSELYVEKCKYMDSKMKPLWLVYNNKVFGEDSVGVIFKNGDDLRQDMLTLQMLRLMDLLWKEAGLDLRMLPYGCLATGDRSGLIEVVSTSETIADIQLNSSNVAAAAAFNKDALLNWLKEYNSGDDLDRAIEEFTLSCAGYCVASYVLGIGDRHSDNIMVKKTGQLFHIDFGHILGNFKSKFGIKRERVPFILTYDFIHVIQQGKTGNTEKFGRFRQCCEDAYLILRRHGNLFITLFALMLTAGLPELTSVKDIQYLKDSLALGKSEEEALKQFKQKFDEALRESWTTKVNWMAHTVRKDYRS
Sequence (Q63787 whole entry partner): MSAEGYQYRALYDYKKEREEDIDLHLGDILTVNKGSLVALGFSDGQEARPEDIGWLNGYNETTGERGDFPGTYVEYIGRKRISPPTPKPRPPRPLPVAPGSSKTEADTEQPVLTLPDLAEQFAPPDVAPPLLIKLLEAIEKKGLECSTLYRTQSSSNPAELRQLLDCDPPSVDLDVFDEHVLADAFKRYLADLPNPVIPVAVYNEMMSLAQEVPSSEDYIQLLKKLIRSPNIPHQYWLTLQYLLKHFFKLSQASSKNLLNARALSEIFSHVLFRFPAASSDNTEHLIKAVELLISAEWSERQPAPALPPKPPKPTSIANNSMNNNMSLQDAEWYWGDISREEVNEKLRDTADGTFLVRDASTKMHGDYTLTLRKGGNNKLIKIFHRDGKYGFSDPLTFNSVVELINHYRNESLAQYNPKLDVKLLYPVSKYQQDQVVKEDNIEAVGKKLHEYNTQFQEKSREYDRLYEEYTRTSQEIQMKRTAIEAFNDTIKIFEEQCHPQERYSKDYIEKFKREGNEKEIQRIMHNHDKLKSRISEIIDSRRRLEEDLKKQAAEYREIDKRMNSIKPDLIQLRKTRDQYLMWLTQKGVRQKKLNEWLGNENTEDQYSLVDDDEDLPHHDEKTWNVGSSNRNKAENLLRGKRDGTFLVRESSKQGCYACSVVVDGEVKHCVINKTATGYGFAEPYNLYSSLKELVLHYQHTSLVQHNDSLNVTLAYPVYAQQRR
endpoint: IC50 (µM)
Enter your answer as a number in µM; do not include the unit.

input: Fill in IC50 for record Cc1ccc(S(=O)(=O)NCC2(C)COC2)cc1-c1cncc(-c2cn(C)nc2C)n1
output: 0.833

input: Note down IC50 recorded for Cc1ccc(S(=O)(=O)N[C@H]2CC[C@H](O)CC2)cc1-c1cncc(-c2csc(CN3CCOCC3)c2)n1
output: 1.11
